B1: minF1; the commonest letter at each place (parent)
chain: GAGACCGCAACTGAAAAGTTGTTATCAGAAATGGATGGGTTGAATTTCTGCACGTAGAAGCAAAAGGC

Variants of: B1
Test: fraction ligated after 30 min (ligated reads / total reads); higher = more ligase activity
Conditions: with F1*subA RNA substrate (template-directed ligation), 42 °C
Mark Condition met for reported fraction ligated of 0.02 or greater; mark Condition not met for anything smaller.

Answered cases to consult:
T23G G33C: Condition met
A31G G37C: Condition not met
A24C A30G: Condition met
A30G G37A: Condition not met
A31G G34A: Condition met
A27T G28C: Condition met
A29C G34T: Condition not met
A27G T32A: Condition met
A29C T36C: Condition not met

Attention now turns to another entry.
Determine whether this variant has fraction ligated no lower than 0.02: G33C G34C
Condition not met
